Reported values of EC50 for individual entries
Test summary: Luminescence Cell-Based Dose Confirmation HTS to Identify Activators of 5'UTR Stem-Loop Driven Alpha-Synuclein mRNA Translation in H4 Neuroglioblastoma Cells. [Related pubchem assays: 1829 (Project Summary), 1814 (Primary HTS)]
Assay type: functional
Activity calls are given as the source filed them.

These recorded examples may help you get a feel for the data.
Any idea what EC50 was measured for O=C(CN1C(=O)S/C(=C\C=C\c2ccccc2)C1=O)N1CCOCC1 ? 12.2 µM (active)

Any idea what EC50 was measured for O=C(NC1CCCC1)c1ccc(CSCc2ccccc2F)o1 ? > 120 µM (not active)

Any idea what EC50 was measured for Cc1cccc(NCc2nc3ccccc3n2C)c1 ? 0.296 µM (active)

Any idea what EC50 was measured for O=C(NC(=S)N1CCCCC1)c1csc([N+](=O)[O-])c1 ? 14.9 µM (active)

Any idea what EC50 was measured for N#Cc1nc(/C=C/c2ccccc2)oc1NCCCN1CCOCC1 ? 22.1 µM (active)

Pending molecule:
Any idea what EC50 was measured for Cc1ccc(N=NC2=C(O)OC(C)(C)OC2=O)c(C)c1 ? 15 µM (active)

* * *

Data export: AC50 values recorded with Cytochrome P450 2D6 (Homo sapiens, UniProt P10635).
Sequence (P10635 whole entry): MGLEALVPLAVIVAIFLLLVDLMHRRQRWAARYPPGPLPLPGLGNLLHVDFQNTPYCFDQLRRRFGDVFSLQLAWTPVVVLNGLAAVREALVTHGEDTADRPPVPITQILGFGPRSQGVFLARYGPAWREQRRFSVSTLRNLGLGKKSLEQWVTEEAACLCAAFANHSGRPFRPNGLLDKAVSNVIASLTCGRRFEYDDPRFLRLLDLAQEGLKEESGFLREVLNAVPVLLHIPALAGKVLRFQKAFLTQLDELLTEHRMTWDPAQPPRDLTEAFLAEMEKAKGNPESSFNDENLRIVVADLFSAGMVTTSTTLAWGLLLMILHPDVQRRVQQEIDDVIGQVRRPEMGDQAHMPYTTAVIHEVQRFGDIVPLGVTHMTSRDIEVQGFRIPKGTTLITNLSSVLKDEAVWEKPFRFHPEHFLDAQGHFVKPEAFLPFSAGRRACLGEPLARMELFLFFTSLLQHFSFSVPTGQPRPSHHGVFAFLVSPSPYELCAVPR

Given the entry Cc1ccc(S(=O)(=O)CCC(=O)Nc2nc3c(s2)CCCC3)cc1 , what AC50 was observed with Cytochrome P450 2D6 (Homo sapiens, UniProt P10635)? 28.2 µM (inconclusive)

---
Given the entry Cc1noc(C)c1C(=O)N1CCC2(CCN(C(=O)Nc3ccccc3)CC2)CC1 , what AC50 was observed with Cytochrome P450 2D6 (Homo sapiens, UniProt P10635)? 12.6 µM (inconclusive)

Given the entry CC[C@@H]1CN2CCc3cc(OC)c(OC)cc3[C@H]2C[C@@H]1C[C@@H]1NCCc2cc(O)c(OC)cc21 , what AC50 was observed with Cytochrome P450 2D6 (Homo sapiens, UniProt P10635)? 10 µM (inconclusive)

Given the entry CS(=O)(=O)N1CCC2(CCN(c3ccncc3)CC2)CC1 , what AC50 was observed with Cytochrome P450 2D6 (Homo sapiens, UniProt P10635)? 25.1 µM (inconclusive)

* * *

Reported values of IC50 for individual entries
Tested target: Genome polyprotein (dengue virus type 2)
Test summary: flavivirus cap methylation enzyme inhibition – biochemical, confirmation dose response, primary screen (AID 588689)
Type: functional
Activity calls are given as the source filed them.

Any idea what IC50 was measured for CN1C(=O)NC(=O)/C(=C\c2ccc([N+](=O)[O-])o2)C1=O ? 42.6 µM (active)

Any idea what IC50 was measured for O=C(O)CN1C(=O)/C(=C\c2cc([N+](=O)[O-])ccc2OCc2ccccc2Cl)SC1=S ? 31.1 µM (active)

Any idea what IC50 was measured for CCCCCc1c2c(cc(O)c1C(=O)O)OC(=O)c1cc(C(=O)CCCC)c(OC)cc1O2 ? 39 µM (active)

Any idea what IC50 was measured for CN(C)c1ccc(/C=c2\c3cc([N+](=O)[O-])ccc3n3c2cc(-c2ccccc2)[n+]3C)cc1 ? 11.8 µM (active)

---
Any idea what IC50 was measured for COc1ccc(-c2csc(NC(=O)CSc3nc(C)nc4sc(C(=O)O)c(C)c34)n2)cc1 ? 92.7 µM (active)

Any idea what IC50 was measured for O=C(O)c1ccc(N(c2ccccc2)c2ccccc2)cc1 ? 60.3 µM (active)

Any idea what IC50 was measured for Cc1[nH]n(-c2ncc(-c3ccccc3)s2)c(=O)c1C(c1ccc(Br)cc1)C(C#N)C#N (stereo unspecified) ? 22.3 µM (active)

Any idea what IC50 was measured for Cc1ccc(CS(=O)(=O)c2ncc(Cl)c(C(=O)Nc3nnc(C(C)C)s3)n2)cc1 ? > 100 µM (active)

Any idea what IC50 was measured for C/C(=N\Nc1cccc(C(=O)O)c1)c1ccc2c(c1)Nc1ccccc1S2 ? > 100 µM (active)

Any idea what IC50 was measured for COC(=O)c1c(NC(=O)/C=C/C(=O)O)sc(C)c1-c1ccc(C(C)C)cc1 ? 65 µM (active)

Any idea what IC50 was measured for CC1=C(C#N)C(=O)NC(=O)/C1=C\c1ccc(-c2cc(C)c(C)cc2[N+](=O)[O-])o1 ? 64.9 µM (active)

Where do the numbers come from? From ChEMBL document CHEMBL1201862.
